biological target: IRAK4 (Homo sapiens (Human), UniProt Q9NWZ3)
Sequence (Q9NWZ3 whole entry, species assumed): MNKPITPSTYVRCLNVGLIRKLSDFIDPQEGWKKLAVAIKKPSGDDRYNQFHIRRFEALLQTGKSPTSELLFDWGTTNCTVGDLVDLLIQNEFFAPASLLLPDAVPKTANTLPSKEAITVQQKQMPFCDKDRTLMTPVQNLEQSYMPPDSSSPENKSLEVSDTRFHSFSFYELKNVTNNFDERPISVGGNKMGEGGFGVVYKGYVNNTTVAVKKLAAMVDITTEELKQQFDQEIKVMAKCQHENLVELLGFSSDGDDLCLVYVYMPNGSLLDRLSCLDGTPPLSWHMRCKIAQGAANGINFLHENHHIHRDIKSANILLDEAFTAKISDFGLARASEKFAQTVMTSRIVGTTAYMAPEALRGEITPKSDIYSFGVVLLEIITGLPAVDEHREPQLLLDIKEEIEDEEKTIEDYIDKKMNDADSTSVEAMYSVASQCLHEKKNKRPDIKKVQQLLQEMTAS
metric.name: IC50

compound | metric.name | value.observed
N#CCC[C@H](N)c1cccc(-c2ccc3cnn(-c4cccc(CO)n4)c3c2)n1 | IC50 | < 0.1 µM

Ask: Record N#CCCNC(=O)c1cccc(-n2ncc3ccc(-c4cncc(N)c4)cc32)n1 : what is its IC50 with IRAK4 (Homo sapiens (Human), UniProt Q9NWZ3)?
Reply: 1 to 10 µM

Ask: Record CCC[C@H](N)c1cccc(-c2cc(C3CCN(C(C)=O)CC3)c3cnn(-c4cccc(CO)n4)c3c2)n1 : what is its IC50 with IRAK4 (Homo sapiens (Human), UniProt Q9NWZ3)?
Reply: < 0.1 µM

Ask: Record CC(N)c1cccc(-c2ccc3cnn(-c4ccccn4)c3c2)n1 (stereo not shown) : what is its IC50 with IRAK4 (Homo sapiens (Human), UniProt Q9NWZ3)?
Reply: 0.1 to 1 µM

----------
pIC50: −log10 of the molar value.
Consider the following pIC50 values measured on IRAK4 (Homo sapiens (Human)).

Ask: Can you look up the measured pIC50 of CCC[C@H](N)c1cccc(-c2cc(-n3ccnn3)c3cnn(-c4cccc(CO)n4)c3c2)n1 for me?
Reply: > 7.00

Ask: Can you look up the measured pIC50 of CCC[C@H](N)c1cccc(-c2ccc3cnn(-c4cccc(CO)n4)c3c2)n1 for me?
Reply: > 7.00

Ask: Can you look up the measured pIC50 of N#Cc1cccc(-n2ncc3ccc(-c4cccc(CN)n4)cc32)n1 for me?
Reply: 6.00 to 7.00

Ask: Can you look up the measured pIC50 of Cc1csc(-n2ncc3ccc(-c4cccc(C(C)N)n4)cc32)n1 (stereo not drawn) for me?
Reply: 6.00 to 7.00

Ask: Can you look up the measured pIC50 of Cc1cccc(-n2ncc3ccc(-c4cc(N)cnc4C)cc32)n1 for me?
Reply: 6.00 to 7.00

Ask: Can you look up the measured pIC50 of CCC[C@H](NC)c1cccc(-c2ccc3cnn(-c4cccc(CO)n4)c3c2)n1 for me?
Reply: > 7.00

----------
Below, each entry is listed with its recorded pIC50.
biological target: UniProtKB Q9NWZ3
pIC50: −log10 of the molar value.

Worked cases, answers included:
molecule | pIC50
Nc1cncc(-c2ccc3cnn(-c4cccc(C5CCC5)n4)c3c2)c1 | 5.00 to 6.00
CC(=O)Nc1cc(-c2cccc(C(C)N)n2)cc2c1cnn2-c1cccc(C)n1 (stereo not shown) | 6.00 to 7.00
Cc1cccc(-n2ncc3ccc(-c4cccc5c4CN(C)C5)cc32)n1 | 5.00 to 6.00

# input for lookup
Ask: Record CCC[C@H](N)c1cccc(-c2cc(C3CCCO3)c3cnn(-c4cccc(CO)n4)c3c2)n1 (stereo partly shown) : what is its pIC50 with UniProtKB Q9NWZ3?
Reply: > 7.00

----------
biological target: IRAK4 (Homo sapiens (Human)); test: IRAK-4 AlphaScreen biochemical kinase assay; settings: 1 nM IRAK4, 1 mM ATP, 3.5 h at RT
Below, each entry is listed with its recorded IC50.

Worked cases, answers included:
compound | value.observed
Cc1csc(-c2cc(-c3cccc([C@H](C)N)n3)cc3c2cnn3-c2cccc(CO)n2)n1 [Example 375] | < 100 nM
Cc1cncc(-n2ncc3ccc(-c4cccc(C(C)N)n4)cc32)n1 (stereo not drawn) [Example 559] | 100 to 1000 nM
Cc1nc(-c2cc(-c3cccc([C@H](C)N)n3)cc3c2cnn3-c2cccc(CO)n2)sc1C [Example 377] | < 100 nM
CCC[C@H](N)c1cccc(-c2cc(N3CCN(C)CC3)c3cnn(-c4cccc(CO)n4)c3c2)n1 [Example 343] | < 100 nM
Cc1cccc(-n2ncc3ccc(-c4cncc(N)c4O)cc32)n1 [Example 12] | 1000 to 10000 nM
Cc1cccc(-n2ncc3c(-c4cc[nH]n4)cc(-c4cccc(C(C)N)n4)cc32)n1 (stereo not drawn) [Example 319] | < 100 nM
CC(N)c1cccc(-c2cc(F)c3cnc(-c4cccc(C(F)(F)F)n4)n3c2)n1 (stereo not drawn) [Example 317] | < 100 nM
CCCC[C@H](N)c1cccc(-c2ccc3cnn(-c4cccc(CO)n4)c3c2)n1 [Example 493] | < 100 nM

Ask: Can you look up the measured IC50 of COCCOc1cc(-c2cccc([C@@H](N)CCCO)n2)cc2c1cnn2-c1cncc(CO)n1 [Example 428] for me?
Reply: < 100 nM

Ask: Can you look up the measured IC50 of C[C@H](N)c1cccc(-c2cc(-c3csc(C(F)(F)F)n3)c3cnn(-c4cccc(CO)n4)c3c2)n1 [Example 382] for me?
Reply: < 100 nM

Ask: Can you look up the measured IC50 of CCC[C@H](N)c1cccc(-c2ccc3cnn(-c4nccc(CO)n4)c3c2)n1 [Example 403] for me?
Reply: < 100 nM

Ask: Can you look up the measured IC50 of Cc1csc(-n2ncc3ccc(-c4cccc(C(C)N)n4)cc32)c1 (stereo not drawn) [Example 282] for me?
Reply: 1000 to 10000 nM

----------
Consider the following IC50 values measured on IRAK4 (Homo sapiens (Human)).

compound | IC50
CCC[C@H](N)c1ccnc(-c2ccc3cnn(-c4cccc(CO)n4)c3c2)c1 [Example 404] | 100 to 1000 nM
Cc1cccc(-n2ncc3c(C(=O)O)cc(-c4cccc(C(C)N)n4)cc32)n1 (stereo not shown) [Example 113] | 100 to 1000 nM
CNC(=O)c1cc(-c2cccc(C(C)N)n2)cc2c1cnn2-c1cccc(C)n1 (stereo not shown) [Example 115] | < 100 nM
CCC[C@H](N)c1cccc(-c2cc(OC(F)F)c3cnn(-c4cncc(CO)n4)c3c2)n1 [Example 526] | < 100 nM
CC(=O)NCc1cc(-c2cccc(C(C)N)n2)cc2nn(-c3cccc(C)n3)cc12 (stereo not shown) [Example 217] | 1000 to 10000 nM

# input for lookup
Ask: Can you look up the measured IC50 of CCC[C@H](N)c1cccc(-c2cc(Cl)c3cnn(-c4cccc(CO)n4)c3c2)n1 [Example 490] for me?
Reply: < 100 nM

----------
pIC50: −log10 of the molar value.
Consider the following pIC50 values measured on IRAK4 (Homo sapiens (Human)).

Worked cases, answers included:
molecule | target.or.system | value.observed
C/C(=N/O)c1cccc(-c2cc(N(C)C(=O)OC(C)(C)C)c3cnn(-c4cccc(C)n4)c3c2)n1 [Example 226] | IRAK4 (Homo sapiens (Human)) | < 5.00
Cc1cnc(-n2ncc3ccc(-c4cccc(C(C)N)n4)cc32)s1 (stereo not shown) [Example 135] | IRAK4 (Homo sapiens (Human)) | 6.00 to 7.00
Nc1cncc(-c2ccc3cnn(-c4cccc(C(=O)NCCCO)n4)c3c2)c1 [Example 66] | IRAK4 (Homo sapiens (Human)) | 6.00 to 7.00

Ask: Record C[C@H](N)c1cccc(-c2cc(-c3nc(C#N)cs3)c3cnn(-c4cccc(CO)n4)c3c2)n1 [Example 369] : what is its pIC50 with IRAK4 (Homo sapiens (Human))?
Reply: > 7.00

Ask: Record Cc1cccc(-n2ncc3c(-c4ncc[nH]4)cc(-c4cccc(C(C)N)n4)cc32)n1 (stereo not shown) [Example 295] : what is its pIC50 with IRAK4 (Homo sapiens (Human))?
Reply: > 7.00

Ask: Record CC(N)CNC(=O)c1cc(-c2cccc([C@H](C)N)n2)cc2c1cnn2-c1cccc(CO)n1 (stereo partly shown) [Example 548] : what is its pIC50 with IRAK4 (Homo sapiens (Human))?
Reply: 6.00 to 7.00

Ask: Record CC[C@@H](F)[C@H](N)c1cccc(-c2cc(OCCOC)c3cnn(-c4cccc(CO)n4)c3c2)n1 [Example 453] : what is its pIC50 with IRAK4 (Homo sapiens (Human))?
Reply: > 7.00

Ask: Record Cc1cccc(-n2ncc3ccc(-c4cccc(CCN)n4)cc32)n1 [Example 254] : what is its pIC50 with IRAK4 (Homo sapiens (Human))?
Reply: 6.00 to 7.00

Ask: Record N#CCCCNC(=O)c1cccc(-n2ncc3ccc(-c4cncc(N)c4)cc32)n1 [Example 71] : what is its pIC50 with IRAK4 (Homo sapiens (Human))?
Reply: 6.00 to 7.00

Ask: Record Cc1cccc(-n2ncc3ccc(-c4ccc(C(F)(F)F)c(C(C)N)n4)cc32)n1 (stereo not shown) [Example 255] : what is its pIC50 with IRAK4 (Homo sapiens (Human))?
Reply: 6.00 to 7.00

Ask: Record CC(N)c1cccc(-c2ccc3cnn(-c4cccc(C(C)(C)C#N)n4)c3c2)n1 (stereo not shown) [Example 288] : what is its pIC50 with IRAK4 (Homo sapiens (Human))?
Reply: 6.00 to 7.00

Ask: Record CCC[C@H](N)c1cccc(-c2cc(F)c3cnn(-c4cccc(CO)n4)c3c2)n1 [Example 474] : what is its pIC50 with IRAK4 (Homo sapiens (Human))?
Reply: > 7.00

Ask: Record NCc1cccc(-c2ccc3cnn(-c4cccc(CO)n4)c3c2)n1 [Example 291] : what is its pIC50 with IRAK4 (Homo sapiens (Human))?
Reply: > 7.00
